Some sequences, each annotated with its measured protein stability index.
# ASSAY_SUMMARY: protein stability index of a GFP-peptide fusion (GPS, HEK-293T) (PSI 1-6); higher = more stable;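 also: 24-mer peptide tiles fused after GFP, lentivirally expressed, FACS-sorted into six equal bins by GFP/DsRed ratio, decoded by Illumina sequencing, PSI is the read-weighted mean bin number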
# TEST_SETTINGS: treatment: DMSO; c terminus: a fixed tail appended

| SEQUENCE_INPUT | protein stability index |
| --- | --- |
| GPEPKDKGSLPQPPITEVESQVFS [ZNF232] | 5.51 |
| SGIGREGAKDSYDFFTEIKTITVK [ALDH8A1] | 3.27 |
| PQHQAGSDSLLTGMAFFKMREMFF [CNOT7] | 2.13 |
| ILLDPILMFFIMAAMLSMVKYNSC [POMT2] | 3.27 |
| SNNNGRIKQLRSGGTPIRGALQIE [PTPRD] | 3.76 |
| VCISTKTQCSEEDQCKINKQIYNL [FEM1B] | 3.22 |
| VDAAYANKVELQAKVESMDQEIKF [KRT71] | 4.88 |
| DGDAPGSLLPAQVAACAQTVVSLA [CEBPD] | 4.26 |
| CTLRQKLIFSPCSDCEEEEEEEEE [WEE1] | 5.04 |
| ENILMCVDDAYVRRMAAEATEWQK [SRPK2] | 3.52 |
| AIEKAFQLWSNVTPLTFTKVSEGQ [MMP1] | 2.45 |
| SNATATPSVRKKAGSFSRRLIKRF [C2CD2L] | 3.47 |
| KEISRKRRSIRYGREVELKPYIAA [PTPRD] | 3.27 |
| SPHEMLQAVVLCSKKTFQITKQGD [USP39] | 3.34 |
| MWWRGCKIKAIMALVAAILLLVII [VAMP4] | 2.89 |
| EDSSNQEEEGPSTFPDLESEFQAA [MAGEA3] | 5.51 |
| EQRTIQAQKESLQNQHHSASLQAS [APBB1IP] | 5.16 |
| PVGLVMEYMETGSLEKLLASEPLP [RIPK4] | 3.46 |
| NPQRQGLLKTPWRAASAMQFFTKG [GCH1] | 2.89 |
| GRQKYKRRPEVDPLPFPGPFPAGP [ESRRA] | 3.87 |
| ITLDGGVLVHVQKWDGKSTTIKRK [FABP4] | 2.46 |
| LGLVARQEDSGLRDHSVRVLISNH [AUP1] | 3 |
| QFVEGVRMEEIVEGCTGALHILAR [CTNNB1] | 3.12 |
| EVDEEGFTVRPDVTQNSTAEPSRF [FCHO1] | 5.26 |
| RFFIDFPHIEEQQKKIESYLHNHF [TENT5D] | 2.13 |
| DSETLDLEEAEGAVGYQPEYSKFC [NFE2L1] | 5.13 |
| LQPEQQLNIYKTLKTHLIEKGILQ [CDS1] | 2.42 |

* * *

Some sequences, each annotated with its measured protein stability index.
# ASSAY_SUMMARY: protein stability index of a GFP-peptide fusion (GPS, HEK-293T) (PSI 1-6); higher = more stable
# TEST_SETTINGS: treatment: DMSO; c terminus: native
MEASURE_NAME: protein stability index

| SEQUENCE_INPUT | MEASURE_NAME | QUANTITATIVE_READOUT |
| --- | --- | --- |
| DPLNICVFILLLVFIVVKCFTSE [RTP4] | protein stability index | 2.93 |
| NCLPKHLLHSVNQRFGSNNTSGS [KLHDC2] | protein stability index | 2.69 |
| AVATIVKPLSAIPQPTITKQEVI [HNF4A] | protein stability index | 2.43 |
| NWVIPAISAVAVALMYRLYMAED [CYB5A] | protein stability index | 3.92 |
| SVPLSLCVSSHLALPAQHHWESW [CLPTM1] | protein stability index | 2.22 |

* * *

# ASSAY_SUMMARY: protein stability index of a GFP-peptide fusion (GPS, HEK-293T) (PSI 1-6); higher = more stable
# TEST_SETTINGS: treatment: DMSO; c terminus: native
Some sequences, each annotated with its measured protein stability index.

| SEQUENCE_INPUT | protein stability index |
| --- | --- |
| HIFNTLRSHLIDKGMLTSTTEDE [CDS2] | 2.71 |
| SFVKKNVLVTGGFFGGFLLGMAS [FUNDC2] | 3.64 |
| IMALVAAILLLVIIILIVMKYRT [VAMP4] | 3.07 |
| LNGASVLPHKSIGESVPEPRIIM [GMPPB] | 3.65 |
| LRPRPASSISLPIGHLGCISLLS [DMRTC1] | 2.47 |
| SALATQYMHCVNHAKQSMLEKGG [CHCHD3] | 2.81 |
| QDGLPPTWRDFRTLEAFHDTCRQ [MED27] | 4.16 |
| SSRQTRPILKEQSSSSFSQGQSS [KRT16] | 5.3 |
| PIPHVFSAGTGSAILPHFHHAFR [PLAGL1] | 3.04 |
| NVVPIHVPPTTENKPKVQCCQNI [RAB11A] | 4.13 |
| PRTRGSWSQPQPLKAPCLNGDTT [RASAL3] | 3.62 |
| RRLIKRFSFKSKPKANGNPSPQL [C2CD2L] | 4.24 |
| AKIEVEKLKAIRLRHDLPEYNSL [RAD54B] | 3.62 |

* * *

# ASSAY_SUMMARY: protein stability index of a GFP-peptide fusion (GPS, HEK-293T) (PSI 1-6); higher = more stable
# TEST_SETTINGS: treatment: MLN4924 1 uM, 8 h; c terminus: a fixed tail appended
Entries are grouped by protein stability index into these classes: LOW: < 3; MID: ≥ 3 and < 4; HIGH: ≥ 4

| SEQUENCE_INPUT | CLASS |
| --- | --- |
| GTNTVSFYTLSPNSHFSLNVKTLK [PCDHGC5] | LOW |
| ELGLLIFFLFIGVILFSSAVYFAE [KCNA1] | LOW |
| SRLVAGEYLSFFDFSGLTLDGALR [PSD2] | LOW |
| RGFMEMNGRGELVESLKRFCASTR [AUP1] | LOW |
| YKRSMDPGYPKMIAHDFPGIGHKV [MMP1] | LOW |
| SNATATPSVRKKAGSFSRRLIKRF [C2CD2L] | MID |
| GIAVWNMDVSREEAPQWLESDSCQ [WDFY1] | MID |
| GRYPLIQTLRQELSLPYLPSGTPE [CHIT1] | MID |
| LTSDLYAPMVAGALARLGTVTVIS [SLC25A39] | LOW |
| TPDQKYSMDNTPHTPTPFKNALEK [MYBL2] | HIGH |
| LKGTLVSTLKEVKPTVFIGVPQIW [ACSBG2] | MID |
| TTPSTSSSSSFDPSVFDGLGDLLM [SNAP91] | MID |
| KIRPDSSRPELLQPLNFVRFYLPL [GLT8D2] | LOW |
| DHELGRCTDSVVKYELMRPSNKAP [EHMT1] | HIGH |
| QSRSFRILAHLTGTEFMQDPDEEH [PDLIM7] | HIGH |
| YAAIVAVVAVHVVLALFVYVAWNE [VMA21] | LOW |
| DYTWTEFDEPFLTRNVQSVSIIDT [TRIP13] | MID |
| GTAGDSMSYHSGSVFSARDRDPNS [TNXB] | HIGH |
| KCVTMSSAVVQLYAADRNCMWSKK [WASL] | LOW |
| TLYTAKKYAVPALEAHCVEFLTKH [BTBD1] | LOW |
| DERRRLLEQKTQESQKKKQQDDSD [ZNF207] | HIGH |
| PVTPQVGEGRKSRKFSRLSCLRRR [SMG5] | HIGH |
| LQEQHLSSPQGVQLDIASQSLDQE [BCL2L13] | HIGH |

* * *

Some sequences, each annotated with its measured protein stability index.
# ASSAY_SUMMARY: protein stability index of a GFP-peptide fusion (GPS, HEK-293T) (PSI 1-6); higher = more stable
# TEST_SETTINGS: treatment: DMSO; c terminus: a fixed tail appended

| SEQUENCE_INPUT | protein stability index |
| --- | --- |
| ESSQTDLKLVAHPRAKSKVWKYFG [ZBED1] | 3.02 |
| SLKAICTEIANCSLKVKFFDLERE [PLD5] | 2.12 |
| TIKRSSQTGEWQNIAIMTEEPELS [GFOD1] | 4.42 |
| KIRPDSSRPELLQPLNFVRFYLPL [GLT8D2] | 2.19 |
| EESGAQLLLEMLTFNPHKRISAFR [CDK4] | 2.21 |
| LSTPKPLVDFCNKPILLHQVEALA [GMPPB] | 2.54 |
| RQVNIRTANCTTANQNCVNKSKLL [KCNA1] | 3.51 |

Data origin: the supplement of paper PMC10567573
